# system: MAPKAPK3 (human) (UniProt Q16644)
# Sequence (Q16644 whole entry, looked up): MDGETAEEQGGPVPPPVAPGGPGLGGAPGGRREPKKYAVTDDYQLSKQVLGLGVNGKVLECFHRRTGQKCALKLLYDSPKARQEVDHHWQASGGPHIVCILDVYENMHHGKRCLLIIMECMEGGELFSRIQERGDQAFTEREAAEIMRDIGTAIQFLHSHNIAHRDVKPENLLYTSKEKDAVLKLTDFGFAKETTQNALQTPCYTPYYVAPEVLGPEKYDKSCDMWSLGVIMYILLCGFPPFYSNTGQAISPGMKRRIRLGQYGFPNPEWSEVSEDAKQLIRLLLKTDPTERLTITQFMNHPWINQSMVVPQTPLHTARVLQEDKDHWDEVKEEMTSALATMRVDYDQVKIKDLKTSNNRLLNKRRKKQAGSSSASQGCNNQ
# assay explanation: radiometric filter-binding kinase assay, Kinase HotSpot
# condition context: compound 0.5 µM; ATP 10 µM
assay readout: residual activity

Field: residual activity (MAPKAPK3 (human) (UniProt Q16644)). Entry: O=C1Nc2ccccc2/C1=C\c1c(Cl)[nH]c2ccccc12
91.3%

Field: residual activity (MAPKAPK3 (human) (UniProt Q16644)). Entry: Oc1ccc(-c2nc(-c3ccc(F)cc3)c(-c3ccncc3)[nH]2)cc1
101%

Field: residual activity (MAPKAPK3 (human) (UniProt Q16644)). Entry: COc1ccc(-c2cnc3c(-c4ccsc4)cnn3c2)cc1
97.5%

Field: residual activity (MAPKAPK3 (human) (UniProt Q16644)). Entry: CCCNC(=O)Nc1ccc(Oc2ncnc3cc(OC)c(OC)cc23)cc1Cl
95.8%

Field: residual activity (MAPKAPK3 (human) (UniProt Q16644)). Entry: Nc1n[nH]c2nnc(-c3c(-c4ccccc4)nn4ccccc34)cc12
103%

Field: residual activity (MAPKAPK3 (human) (UniProt Q16644)). Entry: O=C(Nc1ccc(Cl)cc1)c1ccccc1NCc1ccncc1
91.4%

Field: residual activity (MAPKAPK3 (human) (UniProt Q16644)). Entry: COc1cc2nccc(Oc3ccc(NC(=S)NC(=O)c4ccccc4C)cc3)c2cc1OC
102%

Field: residual activity (MAPKAPK3 (human) (UniProt Q16644)). Entry: CCN1/C(=C/C(C)=O)Sc2ccc(OC)cc21
90.1%

Field: residual activity (MAPKAPK3 (human) (UniProt Q16644)). Entry: O=C1Cc2c([nH]c3ccc([N+](=O)[O-])cc23)-c2ccccc2N1
97%

Field: residual activity (MAPKAPK3 (human) (UniProt Q16644)). Entry: Clc1ccc(Nc2nnc(Cc3ccncc3)c3ccccc23)cc1
98.9%

Field: residual activity (MAPKAPK3 (human) (UniProt Q16644)). Entry: O=c1cc(-c2cccc3c2Sc2ccccc2S3)oc(N2CCOCC2)c1
102%

Field: residual activity (MAPKAPK3 (human) (UniProt Q16644)). Entry: CC(C)(C)c1nc2c3ccc(F)cc3c3c(=O)[nH]ccc3c2[nH]1
94.4%

Field: residual activity (MAPKAPK3 (human) (UniProt Q16644)). Entry: Cc1ccc(NC(=O)c2ccc(CN3CCN(C)CC3)cc2)cc1Nc1nc(-c2cccnc2)cs1
97.9%

Field: residual activity (MAPKAPK3 (human) (UniProt Q16644)). Entry: CC(C)[C@H](CO)Nc1nc(Nc2cccc(Cl)c2)c2ncn(C(C)C)c2n1
85.4%

Field: residual activity (MAPKAPK3 (human) (UniProt Q16644)). Entry: Nc1nc(Nc2ccc(S(N)(=O)=O)cc2)nn1C(=O)c1c(F)cccc1F
98%

Field: residual activity (MAPKAPK3 (human) (UniProt Q16644)). Entry: NC(=O)c1ccc(N(C(N)=O)c2c(F)cccc2F)nc1-c1ccc(F)cc1F
99.1%

Field: residual activity (MAPKAPK3 (human) (UniProt Q16644)). Entry: C#Cc1cccc(Nc2ncnc3cc(OCCOC)c(OCCOC)cc23)c1
98.1%

Field: residual activity (MAPKAPK3 (human) (UniProt Q16644)). Entry: COc1cc2ncnc(Nc3ccc(F)c(Cl)c3)c2cc1OCCCN1CCOCC1
99.6%

Field: residual activity (MAPKAPK3 (human) (UniProt Q16644)). Entry: Cc1cc2ncc(-c3ccccc3)nc2cc1C
100%

Field: residual activity (MAPKAPK3 (human) (UniProt Q16644)). Entry: Nc1nc(Nc2ccc(S(N)(=O)=O)cc2)nn1C(=S)Nc1c(F)cccc1F
89.6%

Field: residual activity (MAPKAPK3 (human) (UniProt Q16644)). Entry: CSc1nc(-c2ccc(F)cc2)c(-c2ccnc(NC(C)c3ccccc3)c2)[nH]1 (centres undefined)
107%

Field: residual activity (MAPKAPK3 (human) (UniProt Q16644)). Entry: O=C(NC(NC(=S)Nc1ccc(F)c([N+](=O)[O-])c1)C(Cl)(Cl)Cl)C(c1ccccc1)c1ccccc1 (centres undefined)
106%

Field: residual activity (MAPKAPK3 (human) (UniProt Q16644)). Entry: O=C1Nc2cc(Br)ccc2/C1=C1/Nc2ccccc2/C1=N\O
96.1%

Field: residual activity (MAPKAPK3 (human) (UniProt Q16644)). Entry: CC(C)n1cnc2c(Nc3cccc(Cl)c3)nc(NCCO)nc21
91%
